The values you see were collected from ChEMBL document CHEMBL2429794.

experiment: Ratio of cytotoxicity against murine J774 cells to antibacterial activity against vancomycin-resistant Staphylococcus aureus VRS2; type: toxicity, cell-based; settings: mouse
observationType: selectivity ratio

INSERT INTO results (structuresmilesstring, valuemeasured) VALUES
  ('NC[C@H]1O[C@H](O[C@H]2[C@H](O)[C@@H](OCCCCc3ccc4ccccc4c3)[C@H](N)C[C@@H]2N)[C@H](N)[C@@H](OCCCCc2ccc3ccccc3c2)[C@@H]1O', '> 5'),
  ('NC[C@H]1O[C@H](O[C@H]2[C@H](O)[C@@H](OCCCc3ccc4ccccc4c3)[C@H](N)C[C@@H]2N)[C@H](N)[C@@H](OCCCc2ccc3ccccc3c2)[C@@H]1O', 11);

Would you kindly look at the next entry?
[Q] Please report the recorded selectivity ratio for CCCCCCCCCO[C@@H]1[C@@H](N)[C@@H](O[C@H]2[C@H](O)[C@@H](OCCCCCCCCC)[C@H](N)C[C@@H]2N)O[C@H](CN)[C@H]1O .
[A] > 5

----------
tested on: Pseudomonas aeruginosa; test: Antibacterial activity against Pseudomonas aeruginosa PA22 (PT629) expressing MexXY after 24 hrs by geometric microdilution method; type: functional
observationType: MIC (µg/mL)
Field format: number, assumed µg/mL, no unit text.

INSERT INTO results (compound, valuemeasured) VALUES
  ('NC[C@H]1O[C@H](O[C@H]2[C@H](O)[C@@H](OCc3cccc4ccccc34)[C@H](N)C[C@@H]2N)[C@H](N)[C@@H](OCc2cccc3ccccc23)[C@@H]1OCc1cccc2ccccc12', 8),
  ('N[C@H]1[C@@H](O[C@H]2[C@H](O)[C@@H](OCc3ccc4ccccc4c3)[C@H](N)C[C@@H]2N)O[C@H](CO)[C@@H](O)[C@@H]1OCc1ccc2ccccc2c1', 128),
  ('NC[C@H]1O[C@H](O[C@H]2[C@H](O)[C@@H](OCCCCCCc3ccc4ccccc4c3)[C@H](N)C[C@@H]2N)[C@H](N)[C@@H](OCCCCCCc2ccc3ccccc3c2)[C@@H]1O', 64);

[Q] Please report the recorded MIC for NC[C@H]1O[C@H](O[C@H]2[C@H](O)[C@@H](O[C@H]3O[C@H](CO)[C@@H](O)[C@H](N)[C@H]3O)[C@H](N)C[C@@H]2N)[C@H](N)C[C@@H]1O [TOBRAMYCIN] .
[A] 1

[Q] What do you have for NC[C@H]1O[C@H](O[C@H]2[C@H](O)[C@@H](OCCCCc3ccc4ccccc4c3)[C@H](N)C[C@@H]2N)[C@H](N)[C@@H](OCCCCc2ccc3ccccc3c2)[C@@H]1O ?
[A] 8

[Q] What do you have for N[C@H]1[C@@H](O[C@H]2[C@H](O)[C@@H](OCc3ccc4ccccc4c3)[C@H](N)C[C@@H]2N)O[C@H](CO)[C@@H](OCc2ccc3ccccc3c2)[C@@H]1OCc1ccc2ccccc2c1 ?
[A] 32

----------
system: Pseudomonas aeruginosa; test: Antibacterial activity against Pseudomonas aeruginosa PA22 (PT629) expressing MexXY after 24 hrs by geometric microdilution method; format: functional
observationType: MIC

As a guide, the following entries are already answered.
INSERT INTO assay_data (compound, assaytarget, observationtype, valuemeasured) VALUES
  ('CCCCO[C@@H]1[C@@H](N)[C@@H](O[C@H]2[C@H](O)[C@@H](OCCCC)[C@H](N)C[C@@H]2N)O[C@H](CN)[C@H]1OCCCC', 'Pseudomonas aeruginosa', 'MIC', '> 128 µg/mL'),
  ('NC[C@H]1O[C@H](O[C@H]2[C@H](O)[C@@H](OCCCc3ccc4ccccc4c3)[C@H](N)C[C@@H]2N)[C@H](N)[C@@H](OCCCc2ccc3ccccc3c2)[C@@H]1O', 'Pseudomonas aeruginosa', 'MIC', '16 µg/mL');

Would you kindly look at the next entry?
[Q] // lookup MIC | system=Pseudomonas aeruginosa | key= N[C@H]1[C@@H](O[C@H]2[C@H](O)[C@@H](O)[C@H](N)C[C@@H]2N)O[C@H](CO)[C@@H](O)[C@@H]1O [PAROMAMINE]
[A] > 128 µg/mL

----------
# maps each entry to its MIC
test system: Staphylococcus aureus; assay: Antibacterial activity against vancomycin-resistant Staphylococcus aureus VRS2 after 24 hrs by geometric microdilution method; assay type: functional; conditions: VRS2, 24 h

INSERT INTO assay_data (structuresmilesstring, observationtype, valuemeasured) VALUES
  ('CCCCCCCCCCCCCCCCCCO[C@@H]1[C@@H](N)[C@@H](O[C@H]2[C@H](O)[C@@H](OCCCCCCCCCCCCCCCCCC)[C@H](N)C[C@@H]2N)O[C@H](CN)[C@H]1O', 'MIC', '> 128 µg/mL'),
  ('CCCCO[C@@H]1[C@@H](N)[C@@H](O[C@H]2[C@H](O)[C@@H](OCCCC)[C@H](N)C[C@@H]2N)O[C@H](CN)[C@H]1O', 'MIC', '> 128 µg/mL');

[Q] // lookup MIC | system=Staphylococcus aureus | key= NC[C@H]1O[C@H](O[C@H]2[C@H](O)[C@@H](OCCCCc3ccc4ccccc4c3)[C@H](N)C[C@@H]2N)[C@H](N)[C@@H](OCCCCc2ccc3ccccc3c2)[C@@H]1OCCCCc1ccc2ccccc2c1
[A] > 128 µg/mL

----------
# maps each entry to its log10 MIC
tested on: Staphylococcus aureus; assay: Antibacterial activity against Staphylococcus aureus expressing aminoglycoside-6'-N-acetyltransferase/2''-O-phosphoryltransferase after 24 hrs by geometric microdilution method; format: functional
Each number you see is log10 of MIC, and the unit inside the log is µg/mL.

INSERT INTO results (structuresmilesstring, assaytarget, observationtype, valuemeasured) VALUES
  ('N[C@H]1[C@@H](O[C@H]2[C@H](O)[C@@H](OCc3cccc4ccccc34)[C@H](N)C[C@@H]2N)O[C@H](CO)[C@@H](OCc2cccc3ccccc23)[C@@H]1OCc1cccc2ccccc12', 'Staphylococcus aureus', 'log10 MIC', 0.90),
  ('NC[C@H]1O[C@H](O[C@H]2[C@H](O)[C@@H](OCc3cccc4ccccc34)[C@H](N)C[C@@H]2N)[C@H](N)[C@@H](OCc2cccc3ccccc23)[C@@H]1OCc1cccc2ccccc12', 'Staphylococcus aureus', 'log10 MIC', 0.60),
  ('NC[C@H]1O[C@H](O[C@H]2[C@H](O)[C@@H](OCCCCc3ccc4ccccc4c3)[C@H](N)C[C@@H]2N)[C@H](N)[C@@H](OCCCCc2ccc3ccccc3c2)[C@@H]1OCCCCc1ccc2ccccc2c1', 'Staphylococcus aureus', 'log10 MIC', 2.11),
  ('CCCCCCCCCCCCCCCCCCO[C@@H]1[C@@H](N)[C@@H](O[C@H]2[C@H](O)[C@@H](OCCCCCCCCCCCCCCCCCC)[C@H](N)C[C@@H]2N)O[C@H](CN)[C@H]1O', 'Staphylococcus aureus', 'log10 MIC', 2.41),
  ('NC[C@H]1O[C@H](O[C@H]2[C@H](O)[C@@H](OCCCCc3ccc4ccccc4c3)[C@H](N)C[C@@H]2N)[C@H](N)[C@@H](OCCCCc2ccc3ccccc3c2)[C@@H]1O', 'Staphylococcus aureus', 'log10 MIC', 0.30);

[Q] Please report the recorded log10 MIC for NC[C@H]1O[C@H](O[C@H]2[C@H](O)[C@@H](O)[C@H](N)C[C@@H]2N)[C@H](N)[C@@H](O)[C@@H]1O .
[A] 1.20

[Q] What do you have for NC[C@H]1O[C@H](O[C@H]2[C@H](O)[C@@H](OCc3ccc4ccccc4n3)[C@H](N)C[C@@H]2N)[C@H](N)[C@@H](OCc2ccc3ccccc3n2)[C@@H]1OCc1ccc2ccccc2n1 ?
[A] 2.11

[Q] What do you have for N[C@H]1[C@@H](O[C@H]2[C@H](O)[C@@H](OCc3ccc4ccccc4c3)[C@H](N)C[C@@H]2N)O[C@H](CO)[C@@H](O)[C@@H]1OCc1ccc2ccccc2c1 ?
[A] 1.51

[Q] What do you have for NC[C@H]1O[C@H](O[C@H]2[C@H](O)[C@@H](OCCCc3ccc4ccccc4c3)[C@H](N)C[C@@H]2N)[C@H](N)[C@@H](OCCCc2ccc3ccccc3c2)[C@@H]1O ?
[A] 0.30

[Q] What do you have for NC[C@H]1O[C@H](O[C@H]2[C@H](O)[C@@H](OCCCCCCc3ccc4ccccc4c3)[C@H](N)C[C@@H]2N)[C@H](N)[C@@H](OCCCCCCc2ccc3ccccc3c2)[C@@H]1O ?
[A] 2.11

[Q] What do you have for NC[C@H]1O[C@H](O[C@H]2[C@H](O)[C@@H](OCc3cccc4ccccc34)[C@H](N)C[C@@H]2N)[C@H](N)[C@@H](OCc2cccc3ccccc23)[C@@H]1O ?
[A] 1.51

[Q] What do you have for NC[C@H]1O[C@H](O[C@H]2[C@H](O)[C@@H](OCCCc3ccc4ccccc4c3)[C@H](N)C[C@@H]2N)[C@H](N)[C@@H](OCCCc2ccc3ccccc3c2)[C@@H]1OCCCc1ccc2ccccc2c1 ?
[A] 1.81
